# kd (1/s) cyBCMA @37° C. values compiled below
Molecular target: cyBCMA
Test: Kinetics and affinity of cyBCMA/human IgG interactions by SPR (Bio-Rad Proteon XPR36)
Format: binding, cynomolgus
Conditions: 37° C.
Value expressed in s⁻¹; do not type the unit.

Would you please look over these solved cases?
L3.PY/H2.YQ: anti-BCMA antibody (antibody, V domains shown) VH: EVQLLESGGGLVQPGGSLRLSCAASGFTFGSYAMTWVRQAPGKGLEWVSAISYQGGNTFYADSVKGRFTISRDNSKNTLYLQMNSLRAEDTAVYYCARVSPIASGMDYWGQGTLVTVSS VL: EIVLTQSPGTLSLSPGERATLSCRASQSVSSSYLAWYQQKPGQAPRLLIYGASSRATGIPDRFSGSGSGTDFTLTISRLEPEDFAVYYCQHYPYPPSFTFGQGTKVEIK :: 0.00621
L3.PY/L1.AH/H2.HA: anti-BCMA antibody (antibody, V domains shown) VH: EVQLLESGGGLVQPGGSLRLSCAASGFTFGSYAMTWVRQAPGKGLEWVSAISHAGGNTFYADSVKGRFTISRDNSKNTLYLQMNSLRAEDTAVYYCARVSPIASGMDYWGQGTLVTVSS VL: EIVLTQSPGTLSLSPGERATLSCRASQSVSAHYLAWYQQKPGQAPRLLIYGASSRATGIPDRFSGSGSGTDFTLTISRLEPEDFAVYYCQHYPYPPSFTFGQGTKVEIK :: 0.00439

# ---- query molecule ----
Qu. Request the reported kd (1/s) cyBCMA @37° C. associated with L3.PY/L1.AH/H2.QL: anti-BCMA antibody (antibody, V domains shown) VH: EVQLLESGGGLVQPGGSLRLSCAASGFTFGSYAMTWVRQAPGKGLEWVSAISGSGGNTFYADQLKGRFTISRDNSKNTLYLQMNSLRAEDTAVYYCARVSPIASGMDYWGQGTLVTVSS VL: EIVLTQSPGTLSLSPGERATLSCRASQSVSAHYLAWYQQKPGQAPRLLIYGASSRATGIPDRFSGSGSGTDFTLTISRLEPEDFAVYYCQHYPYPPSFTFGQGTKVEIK
Ans. 0.00955
